Values compiled from patent US20210222144A1.

Assay target: OhyA wild type (WT) (Elizabethkingia meningoseptica)
Construct: His tag with TEV site by the vector name (HISTEV); expressed in transfected cells; host or cells: E. coli BL21 Star (DE3)
Sequence (C7DLJ6 whole entry): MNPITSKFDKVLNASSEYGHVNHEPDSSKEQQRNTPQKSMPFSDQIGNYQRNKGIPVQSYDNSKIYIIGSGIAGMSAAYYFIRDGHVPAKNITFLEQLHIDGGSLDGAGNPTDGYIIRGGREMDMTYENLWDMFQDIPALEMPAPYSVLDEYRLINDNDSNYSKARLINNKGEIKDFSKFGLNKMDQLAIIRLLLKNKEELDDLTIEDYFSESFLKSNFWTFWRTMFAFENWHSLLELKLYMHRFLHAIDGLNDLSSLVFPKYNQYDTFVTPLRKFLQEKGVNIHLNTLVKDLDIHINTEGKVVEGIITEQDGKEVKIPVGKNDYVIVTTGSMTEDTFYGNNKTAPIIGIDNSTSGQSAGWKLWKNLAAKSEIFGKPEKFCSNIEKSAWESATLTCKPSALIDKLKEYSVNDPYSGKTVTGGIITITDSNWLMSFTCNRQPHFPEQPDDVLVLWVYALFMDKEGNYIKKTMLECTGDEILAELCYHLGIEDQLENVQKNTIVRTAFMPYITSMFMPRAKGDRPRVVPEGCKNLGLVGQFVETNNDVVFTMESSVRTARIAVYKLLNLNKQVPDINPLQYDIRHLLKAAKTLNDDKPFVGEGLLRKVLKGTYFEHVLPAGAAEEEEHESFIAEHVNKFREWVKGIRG
Test name: Whole cell E. coli biotransformation, hydration of oleic acid and derivatives by OhyA wild type
Format: cell-based
Recorded conditions: whole cell E. coli biocatalyst, 2 mM substrate, 30° C., pH 6.0
This section presents molecules with their documented Apparent hydration activity normalized for biomass, OhyA WT values.
Property measured: Apparent hydration activity normalized for biomass, OhyA WT (mU g^−1 CDW)

| Molecule | Reading unit | Reported result |
| --- | --- | --- |
| CCCCCCCC/C=C\CCCCCCCC(=O)OCCC [Entry 9, n-propyl oleate] | mU g^−1 CDW | 0.2 |
| CCCCCCCC/C=C\CCCCCCCC(=O)OCC [Entry 7, ethyl oleate] | mU g^−1 CDW | 0.2 |
| CCCCCCCC/C=C\CCCCCCCCO | mU g^−1 CDW | 8.4 |
